System: Enterobacter cloacae NCTC 13406
Experiment: MIC, broth microdilution (CLSI) versus planktonic bacteria
Format: cell-based
Conditions: NCTC13406; Enterobacter cloacae NCTC 13406; 16-20 h; mode of three independent experiments; read-out: MIC, Ecl NCTC 13406
Quick reference: MIC of the listed items.
Property: MIC

| Molecule | Result value |
| --- | --- |
| Cn1ccc(-c2ccc3ccc(=O)n(CCN[C@H]4CC[C@H]5[C@H](C4)OC(=O)N5c4ccc5c(n4)NC(=O)CO5)c3c2)n1 | 1 to 10 µg/mL |
| COc1ccc2ncc(=O)n(CCNC3CCC4C(C3)OC(=O)N4c3ccc4c(n3)NC(=O)CO4)c2n1 (stereo in doubt) | < 1 µg/mL |
| NCCOc1ccc2ccc(=O)n(CCN[C@@H]3CC[C@@H]4[C@@H](C3)OC(=O)N4c3ccc4c(n3)NC(=O)CO4)c2c1 | > 100 µg/mL |
| COc1ccc2ccc(=O)n(CCCN[C@H]3CC[C@H]4[C@H](C3)OC(=O)N4c3ccc4c(n3)NC(=O)CS4)c2n1 | < 1 µg/mL |
| O=C1COc2ccc(N3C(=O)O[C@H]4C[C@@H](NCCn5c(=O)cnc6cc(F)c(F)cc65)CC[C@@H]43)nc2N1 | < 1 µg/mL |
| COc1ccc2ccc(=O)n(CCN[C@H]3CC[C@H]4[C@H](C3)OC(=O)N4c3ncc4c(n3)NC(=O)CO4)c2n1 | 1 to 10 µg/mL |
| COc1cnc2ccc(=O)n(CCN[C@H]3CC[C@H]4[C@H](C3)OC(=O)N4c3ccc4c(n3)NC(=O)CS4)c2c1 | < 1 µg/mL |
| COc1ccc2ccc(=O)n(CCN[C@H]3CC[C@H]4[C@H](C3)OC(=O)N4c3ccc4c(n3)NC(=O)CO4)c2c1 | < 1 µg/mL |
| COc1ccc2ccc(=O)n(CCN(CCN)[C@H]3CC[C@H]4[C@@H](C3)OC(=O)N4c3ccc4c(n3)NC(=O)CO4)c2n1 | 10 to 100 µg/mL |
| COc1ccc2ccc(=O)n(CCN[C@@H]3CC[C@@H]4[C@H](C3)OC(=O)N4c3ccc4c(n3)NC(=O)CO4)c2n1 | < 1 µg/mL |
| N#Cc1cnc2ccc(=O)n(CCN[C@@H]3CC[C@@H]4[C@@H](C3)OC(=O)N4c3ccc4c(n3)NC(=O)CO4)c2c1 | 1 to 10 µg/mL |
| COc1ccc2ccc(=O)n(CCN[C@H]3CC[C@H]4[C@H](C3)OC(=O)N4c3ccc4c(n3)NC(=O)C(C)(C)O4)c2n1 | 10 to 100 µg/mL |
| COc1cnc2ccc(=O)n(CCCN[C@H]3CC[C@H]4[C@H](C3)OC(=O)N4c3ccc4c(n3)NC(=O)CO4)c2c1 | 1 to 10 µg/mL |
